Study System: T1, human C1s (human, UniProt P09871 16-688)
T1 construct: Analyte in the Biacore assays; also called hC1s; serum-derived human C1s (CompTech)
T1 sequence: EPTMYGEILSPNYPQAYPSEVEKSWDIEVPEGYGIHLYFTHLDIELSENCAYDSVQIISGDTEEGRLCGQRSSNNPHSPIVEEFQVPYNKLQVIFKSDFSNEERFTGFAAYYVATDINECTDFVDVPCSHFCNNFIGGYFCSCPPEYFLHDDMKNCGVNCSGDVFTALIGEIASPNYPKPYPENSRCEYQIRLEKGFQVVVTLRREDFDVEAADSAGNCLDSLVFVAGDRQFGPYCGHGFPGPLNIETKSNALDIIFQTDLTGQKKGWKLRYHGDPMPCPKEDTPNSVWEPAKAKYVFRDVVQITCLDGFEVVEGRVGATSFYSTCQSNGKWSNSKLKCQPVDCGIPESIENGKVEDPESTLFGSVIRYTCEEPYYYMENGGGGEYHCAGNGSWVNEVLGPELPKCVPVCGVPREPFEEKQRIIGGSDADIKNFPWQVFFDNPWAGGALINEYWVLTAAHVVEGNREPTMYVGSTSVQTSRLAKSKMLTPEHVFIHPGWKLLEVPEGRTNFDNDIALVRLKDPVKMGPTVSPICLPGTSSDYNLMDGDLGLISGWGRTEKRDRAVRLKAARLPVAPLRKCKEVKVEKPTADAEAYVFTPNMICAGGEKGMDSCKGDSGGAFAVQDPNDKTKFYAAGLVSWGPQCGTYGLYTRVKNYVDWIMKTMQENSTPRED
Procedure Details: SPR (Biacore T200, 37C), Ab captured on protein A/G; pH 5.8, 3 uM Ca
Reported kon is given for each of the following binders.
Reported Endpoint: kon (M⁻¹ s⁻¹)

C1_IPN92H0231-SG4GK/IPN93L0024-SK1 (antibody, human IgG4 S228P, kappa, name in Kabat numbering, V domains shown, Substitutions from IPN009VH2, Kabat numbering; also called IPN92H0231/IPN93L0024) VH: EVMLVESGGGLVKPGGSLRLSCAASGFTFSNYAMSWVRQAPGKGLEWVATISSGGSHTYYLDSVKGRFTISRDNSKDTLYLQMNSLRAEDTALYYCARLFTKHAMDYWGQGTLVTVSS VL: QIVLTQSPATLSLSPGERATLSCTASSSVSSSYLHWYQQKPGKAPKLWIYSTSNLASGVPSRFSGSGSGTDYTLTISSLQPEDFATYYCHQYYRLHPITFGQGTKLEIKR	1.28e+06
C1_IPN92H0157-SG4GK/IPN93L0024-SK1 (antibody, human IgG4 S228P, kappa, name in Kabat numbering, V domains shown, Substitutions from IPN009VH2, Kabat numbering; also called IPN92H0157/IPN93L0024) VH: EVMLVESGGGLVKPGGSLRLSCAASGFTFSNYAMSWVRQAPGKGLEWVATISSGGSHTRYLDSVKGRFTISRDNSKDTLYLQMNSLRAEDTALYYCARLFTGHAMDYWGQGTLVTVSS VL: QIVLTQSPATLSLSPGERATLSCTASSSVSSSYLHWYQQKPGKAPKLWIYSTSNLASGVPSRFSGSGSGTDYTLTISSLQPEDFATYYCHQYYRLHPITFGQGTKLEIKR	564000
C1_IPN92H0162-SG4GK/IPN93L0024-SK1 (antibody, human IgG4 S228P, kappa, name in Kabat numbering, V domains shown, Substitutions from IPN009VH2, Kabat numbering; also called IPN92H0162/IPN93L0024) VH: EVMLVESGGGLVKPGGSLRLSCAASGFTFSNYAMSWVRQAPGKGLEWVATISSGGSHTYKLDSVKGRFTISRDNSKDTLYLQMNSLRAEDTALYYCARLFTGHAMDYWGQGTLVTVSS VL: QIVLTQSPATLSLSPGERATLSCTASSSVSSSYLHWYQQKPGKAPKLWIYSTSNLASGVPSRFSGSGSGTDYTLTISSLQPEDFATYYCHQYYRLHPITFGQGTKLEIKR	1.6e+06
